All figures here come from patent US8501446B2.

- assayed.system: JAK2 (Homo sapiens)
- protocol.notes: JAK2 inhibition assay (radioactive enzyme assay, as for JAK3)
- Assay type: biochemical
- setup.conditions: Ki(app); average Ki if more than one value determined
quantity.name: Ki

Task: Consider the compound shown here: c1ccc(CNc2ccnc(-c3c[nH]c4ncccc34)n2)cc1 What is its recorded Ki?
Result: < 500 nM

###

- assayed.system: JAK2 (Homo sapiens, UniProt O60674)
- Sequence (O60674 whole entry, species assumed): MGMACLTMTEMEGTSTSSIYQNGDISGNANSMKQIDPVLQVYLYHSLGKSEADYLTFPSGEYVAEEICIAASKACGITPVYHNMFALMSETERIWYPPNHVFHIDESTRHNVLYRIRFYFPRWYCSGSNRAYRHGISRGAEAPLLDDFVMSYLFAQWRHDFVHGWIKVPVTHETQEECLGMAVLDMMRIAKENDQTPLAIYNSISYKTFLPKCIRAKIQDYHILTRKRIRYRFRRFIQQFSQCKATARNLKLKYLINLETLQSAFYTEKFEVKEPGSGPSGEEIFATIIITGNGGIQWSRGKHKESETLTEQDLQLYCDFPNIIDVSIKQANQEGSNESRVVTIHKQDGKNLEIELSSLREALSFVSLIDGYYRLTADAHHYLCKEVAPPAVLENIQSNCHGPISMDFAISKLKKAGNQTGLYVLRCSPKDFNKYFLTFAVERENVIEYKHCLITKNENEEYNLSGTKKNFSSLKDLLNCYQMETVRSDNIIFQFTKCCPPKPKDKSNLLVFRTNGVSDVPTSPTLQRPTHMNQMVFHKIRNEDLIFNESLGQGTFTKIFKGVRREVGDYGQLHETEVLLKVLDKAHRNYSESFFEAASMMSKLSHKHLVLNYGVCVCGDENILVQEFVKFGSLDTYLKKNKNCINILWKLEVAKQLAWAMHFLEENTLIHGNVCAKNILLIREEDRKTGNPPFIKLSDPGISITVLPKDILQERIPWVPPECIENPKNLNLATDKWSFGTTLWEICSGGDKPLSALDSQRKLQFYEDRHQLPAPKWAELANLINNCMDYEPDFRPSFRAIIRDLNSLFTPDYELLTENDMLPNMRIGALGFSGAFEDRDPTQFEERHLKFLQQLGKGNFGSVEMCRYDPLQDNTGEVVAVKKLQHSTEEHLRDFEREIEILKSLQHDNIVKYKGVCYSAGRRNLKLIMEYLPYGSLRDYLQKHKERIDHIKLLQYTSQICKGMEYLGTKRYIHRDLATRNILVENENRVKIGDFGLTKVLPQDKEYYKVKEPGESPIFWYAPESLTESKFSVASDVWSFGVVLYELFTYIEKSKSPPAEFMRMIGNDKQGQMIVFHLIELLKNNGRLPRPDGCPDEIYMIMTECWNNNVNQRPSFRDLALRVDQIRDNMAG
- protocol.notes: JAK2 inhibition assay (radioactive enzyme assay, as for JAK3)
- Assay type: biochemical
- setup.conditions: average Ki if more than one value determined
quantity.name: Ki

Task: Consider the molecule shown here: C/C=C(\C)C(=O)Nc1cnc2[nH]cc(-c3cccc(N4C[C@@H](C)N(C(C)=O)[C@@H](C)C4)n3)c2c1 [Compound 161] What is its recorded Ki?
Result: < 500 nM

Task: Consider the molecule shown here: CCC(=O)Nc1cnc2[nH]cc(-c3cccc(N4C[C@@H](C)N(C(C)=O)[C@@H](C)C4)n3)c2c1 [Compound 114] What is its recorded Ki?
Result: < 500 nM

Task: Consider the molecule shown here: CCOC(=O)N1CCCN(c2cccc(-c3c[nH]c4ncc(Cl)cc34)n2)CC1 [Compound 84] What is its recorded Ki?
Result: < 500 nM

Task: Consider the molecule shown here: CC(=O)N1[C@H](C)CN(c2nc(-c3c[nH]c4ncc(Cl)cc34)c(F)cc2C(N)=O)C[C@@H]1C [Compound 72] What is its recorded Ki?
Result: 500 to 5000 nM

Task: Consider the molecule shown here: CCCC(=O)N1CCN(c2cccc(-c3c[nH]c4ncc(Cl)cc34)n2)CC1 [Compound 86] What is its recorded Ki?
Result: < 500 nM

Task: Consider the molecule shown here: COC(=O)Nc1cnc2[nH]cc(-c3cccc(N4C[C@@H](C)N(C(C)=O)[C@@H](C)C4)n3)c2c1 [Compound 66] What is its recorded Ki?
Result: < 500 nM

Task: Consider the molecule shown here: CCOC(=O)CCC(=O)Nc1cnc2[nH]cc(-c3cccc(N4C[C@@H](C)N(C(C)=O)[C@@H](C)C4)n3)c2c1 [Compound 119] What is its recorded Ki?
Result: < 500 nM

Task: Consider the molecule shown here: Clc1cnc2[nH]cc(-c3cccc(CNc4ccccc4)c3)c2c1 [Compound 186] What is its recorded Ki?
Result: < 500 nM

Task: Consider the molecule shown here: CC(=O)N1[C@H](C)CN(c2cccc(-c3c[nH]c4ncc(OCc5ccccc5)cc34)n2)C[C@@H]1C [Compound 193] What is its recorded Ki?
Result: < 500 nM

Task: Consider the molecule shown here: c1cncc(CNc2nccc(-c3c[nH]c4ncccc34)n2)c1 [Compound 6] What is its recorded Ki?
Result: < 500 nM

Task: Consider the molecule shown here: CC(=O)N1[C@H](C)CN(c2cccc(-c3c[nH]c4ncc(C(=O)N5C[C@@H](C)N[C@@H](C)C5)cc34)n2)C[C@@H]1C [Compound 52] What is its recorded Ki?
Result: > 5000 nM

Task: Consider the molecule shown here: OC[C@H](Nc1cccc(-c2c[nH]c3ncc(Cl)cc23)n1)c1ccccc1 [Compound 100] What is its recorded Ki?
Result: < 500 nM

Task: Consider the molecule shown here: CN(C)c1cccc(-c2c[nH]c3ncc(Cl)cc23)n1 [Compound 122] What is its recorded Ki?
Result: < 500 nM

Task: Consider the molecule shown here: CC(C)[C@H](CO)Nc1cccc(-c2c[nH]c3ncc(Cl)cc23)n1 [Compound 135] What is its recorded Ki?
Result: < 500 nM

Task: Consider the molecule shown here: CC(C)[C@@H](CO)Nc1cccc(-c2c[nH]c3ncc(Cl)cc23)n1 [Compound 134] What is its recorded Ki?
Result: < 500 nM

Task: Consider the molecule shown here: O=C(Nc1cccc(-c2c[nH]c3ncc(Cl)cc23)n1)OCc1ccccc1 [Compound 91] What is its recorded Ki?
Result: 500 to 5000 nM

Task: Consider the molecule shown here: Cc1cc(N[C@@H](C)C(=O)NCCNS(C)(=O)=O)nc(-c2c[nH]c3ncc(Cl)cc23)n1 [Compound 450] What is its recorded Ki?
Result: 500 to 5000 nM

Task: Consider the molecule shown here: CNC(=O)c1cnc2[nH]cc(-c3cccc(N4C[C@@H](C)N(C(C)=O)[C@@H](C)C4)n3)c2c1 [Compound 59] What is its recorded Ki?
Result: < 500 nM

Task: Consider the molecule shown here: CC(=O)N1[C@H](C)CN(c2cccc(-c3c[nH]c4ncc(OCCN5CCOCC5)cc34)n2)C[C@@H]1C [Compound 95] What is its recorded Ki?
Result: 500 to 5000 nM

Task: Consider the molecule shown here: CC(=O)N1[C@H](C)CN(c2cccc(-c3c[nH]c4ncc(NC(=O)c5cccc(Cl)c5)cc34)n2)C[C@@H]1C [Compound 174] What is its recorded Ki?
Result: < 500 nM

Task: Consider the molecule shown here: CNc1cnc2[nH]cc(-c3cccc(N4C[C@@H](C)N(C(C)=O)[C@@H](C)C4)n3)c2c1 [Compound 159] What is its recorded Ki?
Result: < 500 nM

Task: Consider the molecule shown here: CC(=O)N1[C@H](C)CN(c2cccc(-c3c[nH]c4ncc(NC(=O)CCCN5CCOCC5)cc34)n2)C[C@@H]1C [Compound 153] What is its recorded Ki?
Result: < 500 nM

Task: Consider the molecule shown here: FC(F)(F)c1cc(NCc2ccccc2)cc(-c2c[nH]c3ncc(Cl)cc23)c1 [Compound 187] What is its recorded Ki?
Result: 500 to 5000 nM

Task: Consider the molecule shown here: CC(=O)N1[C@H](C)CN(c2cc(-c3nnn[nH]3)cc(-c3c[nH]c4ncc(Cl)cc34)n2)C[C@@H]1C [Compound 111] What is its recorded Ki?
Result: < 500 nM

Task: Consider the molecule shown here: CC(=O)N1[C@H](C)CN(c2cccc(-c3c[nH]c4ncc(NC(=O)c5cccs5)cc34)n2)C[C@@H]1C [Compound 182] What is its recorded Ki?
Result: < 500 nM

Task: Consider the molecule shown here: CC(=O)N1[C@H](C)CN(c2cccc(-c3c[nH]c4ncc(NC(=O)c5ccccc5Cl)cc34)n2)C[C@@H]1C [Compound 173] What is its recorded Ki?
Result: < 500 nM

Task: Consider the molecule shown here: Cc1cc(-c2c[nH]c3ncc(Cl)cc23)c2ccccc2n1 [Compound 198] What is its recorded Ki?
Result: > 5000 nM

Task: Consider the molecule shown here: CC(=O)N1[C@H](C)CN(c2cccc(-c3c[nH]c4ncc(NC(=O)c5ccc(F)cc5)cc34)n2)C[C@@H]1C [Compound 189] What is its recorded Ki?
Result: < 500 nM

Task: Consider the molecule shown here: NC(=O)c1ccc(-c2c[nH]c3ncc(Cl)cc23)cc1 [Compound 105] What is its recorded Ki?
Result: < 500 nM

Task: Consider the molecule shown here: CC(=O)N1[C@H](C)CN(c2cccc(-c3c[nH]c4ncc(NC(=O)c5ccno5)cc34)n2)C[C@@H]1C [Compound 167] What is its recorded Ki?
Result: < 500 nM

###

Record form. Attribute: pKi. Fill in for each entry.
- assayed.system: JAK2 (Homo sapiens)
- protocol.notes: JAK2 inhibition assay (radioactive enzyme assay, as for JAK3)
- Type: biochemical
- setup.conditions: average Ki if more than one value determined
pKi: −log10 of the molar value.

Task: Consider the compound shown here: O=C(O)Cc1cccc(-c2c[nH]c3ncc(Cl)cc23)c1 [Compound 178] What is its recorded pKi?
Result: 5.30 to 6.30

Task: Consider the compound shown here: CC(C)CNc1cc(C#N)cc(-c2c[nH]c3ncc(Cl)cc23)n1 [Compound 150] What is its recorded pKi?
Result: > 6.30

Task: Consider the compound shown here: OC[C@@H](Nc1cccc(-c2c[nH]c3ncc(Cl)cc23)n1)c1ccccc1 [Compound 101] What is its recorded pKi?
Result: > 6.30

Task: Consider the compound shown here: C[C@@H]1CCNCC1N(C)c1cc(-c2c[nH]c3ncccc23)ncn1 (some centres unmarked) [Compound 17] What is its recorded pKi?
Result: 5.30 to 6.30

Task: Consider the compound shown here: CCC(=O)N1CCN(c2cccc(-c3c[nH]c4ncc(Cl)cc34)n2)CC1 [Compound 85] What is its recorded pKi?
Result: > 6.30
